- Tested on: hpDNA (hairpin DNA, 28 bp as printed) (DNA, hairpin) CGCGAATTCGCGTTTTCGCGAATTCGCG
- measurement.notes: fluorescence titration, single-site fit
- experimental.setup: PBS (ion concentrations not given); PBS pH 7.4, room temperature, 1 h; 10 nM compound
Recorded Kd1 by entry
assay.endpoint: Kd1 (nM)

INSERT INTO assay_data (test_smiles, tgt, assay_endpoint, measurement_unit, readout_number) VALUES
  ('CNc1ccc2c(c1)C(C)(C)c1cc(NC)ccc1C21OC(=O)c2cc(C(=O)NCCCCOc3ccc(-c4nc5ccc(-c6nc7ccc(N8CCN(C)CC8)cc7[nH]6)cc5[nH]4)cc3)ccc21', 'hpDNA (hairpin DNA, 28 bp as printed) (DNA, hairpin) CGCGAATTCGCGTTTTCGCGAATTCGCG', 'Kd1', 'nM', 155),
  ('CN1CCN(c2ccc3nc(-c4ccc5nc(-c6ccc(OCCCCNC(=O)c7ccc8c(c7)C(=O)OC87c8ccc(N(C)C)cc8Oc8cc(N(C)C)ccc87)cc6)[nH]c5c4)[nH]c3c2)CC1', 'hpDNA (hairpin DNA, 28 bp as printed) (DNA, hairpin) CGCGAATTCGCGTTTTCGCGAATTCGCG', 'Kd1', 'nM', 365),
  ('CN1CCN(c2ccc3nc(-c4ccc5nc(-c6ccc(OCCCCNC(=O)c7ccc8c(c7)C(=O)OC87c8ccc(N(C)C)cc8C(C)(C)c8cc(N(C)C)ccc87)cc6)[nH]c5c4)[nH]c3c2)CC1', 'hpDNA (hairpin DNA, 28 bp as printed) (DNA, hairpin) CGCGAATTCGCGTTTTCGCGAATTCGCG', 'Kd1', 'nM', 347),
  ('CN1CCN(c2ccc3nc(-c4ccc5nc(-c6ccc(OCCCCNC(=O)c7ccc8c(c7)C7(OC8=O)c8ccc(N(C)C)cc8[Si](C)(C)c8cc(N(C)C)ccc87)cc6)[nH]c5c4)[nH]c3c2)CC1', 'hpDNA (hairpin DNA, 28 bp as printed) (DNA, hairpin) CGCGAATTCGCGTTTTCGCGAATTCGCG', 'Kd1', 'nM', 669),
  ('CN1CCN(c2ccc3nc(-c4ccc5nc(-c6ccc(OCCCCNC(=O)c7ccc8c(c7)C(=O)OC87c8ccc(N(C)C)cc8[Si](C)(C)c8cc(N(C)C)ccc87)cc6)[nH]c5c4)[nH]c3c2)CC1', 'hpDNA (hairpin DNA, 28 bp as printed) (DNA, hairpin) CGCGAATTCGCGTTTTCGCGAATTCGCG', 'Kd1', 'nM', 4799),
  ('CN1CCN(c2ccc3nc(-c4ccc5nc(-c6ccc(OCCCCNC(=O)c7ccc8c(c7)C7(OC8=O)c8ccc(N(C)C)c[c]8[Ge]([CH3])([CH3])[c]8cc(N(C)C)ccc87)cc6)[nH]c5c4)[nH]c3c2)CC1', 'hpDNA (hairpin DNA, 28 bp as printed) (DNA, hairpin) CGCGAATTCGCGTTTTCGCGAATTCGCG', 'Kd1', 'nM', 572),
  ('CN1CCN(c2ccc3nc(-c4ccc5nc(-c6ccc(OCCCCNC(=O)c7ccc8c(c7)C(=O)OC87c8ccc(N(C)C)c[c]8[Ge]([CH3])([CH3])[c]8cc(N(C)C)ccc87)cc6)[nH]c5c4)[nH]c3c2)CC1', 'hpDNA (hairpin DNA, 28 bp as printed) (DNA, hairpin) CGCGAATTCGCGTTTTCGCGAATTCGCG', 'Kd1', 'nM', 4374);
